- testedSystem: Menin/Histone-lysine N-methyltransferase MLL (Homo sapiens, UniProt O00255)
- Sequence (O00255 whole entry): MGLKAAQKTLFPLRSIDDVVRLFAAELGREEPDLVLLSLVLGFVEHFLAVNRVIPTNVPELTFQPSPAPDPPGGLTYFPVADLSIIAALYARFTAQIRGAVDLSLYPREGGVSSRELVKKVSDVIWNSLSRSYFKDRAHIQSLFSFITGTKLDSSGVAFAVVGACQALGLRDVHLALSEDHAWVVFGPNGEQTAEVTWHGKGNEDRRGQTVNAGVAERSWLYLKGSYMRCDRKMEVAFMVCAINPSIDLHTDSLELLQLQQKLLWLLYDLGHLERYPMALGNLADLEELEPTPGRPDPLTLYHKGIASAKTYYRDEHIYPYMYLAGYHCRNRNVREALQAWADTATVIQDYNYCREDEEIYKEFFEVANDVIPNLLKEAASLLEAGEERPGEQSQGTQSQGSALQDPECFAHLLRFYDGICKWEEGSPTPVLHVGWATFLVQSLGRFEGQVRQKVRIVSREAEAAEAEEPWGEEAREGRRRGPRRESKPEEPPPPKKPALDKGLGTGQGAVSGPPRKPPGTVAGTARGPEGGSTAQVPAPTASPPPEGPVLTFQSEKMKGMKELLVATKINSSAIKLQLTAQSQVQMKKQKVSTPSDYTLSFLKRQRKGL
- Sequence (Q03164 1-2718 partner limits assumed): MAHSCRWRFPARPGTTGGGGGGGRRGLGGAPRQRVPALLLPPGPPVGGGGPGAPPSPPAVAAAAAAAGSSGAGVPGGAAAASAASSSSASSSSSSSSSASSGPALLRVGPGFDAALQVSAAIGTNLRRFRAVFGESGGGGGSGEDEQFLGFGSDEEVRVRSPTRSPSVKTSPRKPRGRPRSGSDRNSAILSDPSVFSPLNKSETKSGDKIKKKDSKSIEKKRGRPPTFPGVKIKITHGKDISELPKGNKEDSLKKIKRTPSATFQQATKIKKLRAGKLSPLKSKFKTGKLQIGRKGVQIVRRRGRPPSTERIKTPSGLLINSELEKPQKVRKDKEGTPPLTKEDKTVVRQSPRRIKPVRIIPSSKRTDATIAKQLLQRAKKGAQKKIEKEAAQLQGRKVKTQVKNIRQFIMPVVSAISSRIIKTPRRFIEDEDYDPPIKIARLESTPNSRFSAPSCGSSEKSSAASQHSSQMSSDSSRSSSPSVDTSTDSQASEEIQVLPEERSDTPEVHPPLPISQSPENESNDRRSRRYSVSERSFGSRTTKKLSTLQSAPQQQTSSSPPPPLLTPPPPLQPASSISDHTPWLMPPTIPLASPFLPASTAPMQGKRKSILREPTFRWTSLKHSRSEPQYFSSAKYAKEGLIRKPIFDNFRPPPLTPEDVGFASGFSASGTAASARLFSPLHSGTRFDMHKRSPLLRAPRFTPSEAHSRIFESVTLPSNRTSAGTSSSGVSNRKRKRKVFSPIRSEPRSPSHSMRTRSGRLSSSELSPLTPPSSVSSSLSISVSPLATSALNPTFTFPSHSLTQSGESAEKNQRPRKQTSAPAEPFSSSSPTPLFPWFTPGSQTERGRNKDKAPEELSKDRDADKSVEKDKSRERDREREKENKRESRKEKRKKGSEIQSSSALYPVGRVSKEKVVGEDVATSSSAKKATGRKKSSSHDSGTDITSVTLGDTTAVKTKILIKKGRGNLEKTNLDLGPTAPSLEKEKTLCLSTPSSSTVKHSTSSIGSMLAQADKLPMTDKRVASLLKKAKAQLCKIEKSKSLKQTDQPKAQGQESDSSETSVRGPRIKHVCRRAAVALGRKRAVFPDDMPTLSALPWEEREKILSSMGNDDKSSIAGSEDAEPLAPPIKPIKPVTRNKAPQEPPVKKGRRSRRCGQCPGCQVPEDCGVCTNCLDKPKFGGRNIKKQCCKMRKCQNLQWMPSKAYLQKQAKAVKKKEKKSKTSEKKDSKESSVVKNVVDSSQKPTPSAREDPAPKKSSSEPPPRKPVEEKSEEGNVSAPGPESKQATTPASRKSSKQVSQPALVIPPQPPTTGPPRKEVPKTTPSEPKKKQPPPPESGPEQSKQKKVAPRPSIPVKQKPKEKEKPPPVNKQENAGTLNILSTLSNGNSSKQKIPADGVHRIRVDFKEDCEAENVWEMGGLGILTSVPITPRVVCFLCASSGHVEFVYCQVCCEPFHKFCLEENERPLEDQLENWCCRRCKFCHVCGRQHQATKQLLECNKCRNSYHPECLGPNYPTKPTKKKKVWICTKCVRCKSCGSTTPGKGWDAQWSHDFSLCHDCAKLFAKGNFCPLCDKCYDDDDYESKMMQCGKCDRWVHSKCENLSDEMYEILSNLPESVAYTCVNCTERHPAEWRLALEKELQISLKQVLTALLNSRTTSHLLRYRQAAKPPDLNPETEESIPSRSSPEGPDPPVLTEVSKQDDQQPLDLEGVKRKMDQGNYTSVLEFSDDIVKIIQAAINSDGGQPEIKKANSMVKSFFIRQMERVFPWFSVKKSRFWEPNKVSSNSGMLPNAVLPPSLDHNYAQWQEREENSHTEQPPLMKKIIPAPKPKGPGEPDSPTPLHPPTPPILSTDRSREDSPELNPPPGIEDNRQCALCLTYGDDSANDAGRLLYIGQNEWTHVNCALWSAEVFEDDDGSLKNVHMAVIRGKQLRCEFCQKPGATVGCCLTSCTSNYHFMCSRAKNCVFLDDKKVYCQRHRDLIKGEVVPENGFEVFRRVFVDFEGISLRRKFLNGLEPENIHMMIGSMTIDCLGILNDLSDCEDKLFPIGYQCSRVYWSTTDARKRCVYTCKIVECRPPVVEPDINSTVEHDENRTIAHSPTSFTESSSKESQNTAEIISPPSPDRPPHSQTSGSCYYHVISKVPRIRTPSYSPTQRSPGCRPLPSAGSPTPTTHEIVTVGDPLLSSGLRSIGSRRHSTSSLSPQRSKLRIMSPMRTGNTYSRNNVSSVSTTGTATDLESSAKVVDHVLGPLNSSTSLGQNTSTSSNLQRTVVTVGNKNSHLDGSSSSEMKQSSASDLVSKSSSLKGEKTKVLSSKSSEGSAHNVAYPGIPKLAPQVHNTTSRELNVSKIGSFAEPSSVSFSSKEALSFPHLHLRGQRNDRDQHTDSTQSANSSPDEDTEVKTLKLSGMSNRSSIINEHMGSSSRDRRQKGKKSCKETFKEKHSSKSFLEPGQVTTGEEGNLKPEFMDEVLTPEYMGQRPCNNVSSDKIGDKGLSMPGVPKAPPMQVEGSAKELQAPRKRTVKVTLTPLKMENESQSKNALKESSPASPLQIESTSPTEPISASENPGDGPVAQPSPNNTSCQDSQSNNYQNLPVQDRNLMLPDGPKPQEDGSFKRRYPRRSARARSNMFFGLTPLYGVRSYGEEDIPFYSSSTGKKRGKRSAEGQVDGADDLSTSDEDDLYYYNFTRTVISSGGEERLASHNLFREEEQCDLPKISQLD
- Sequence (Q03164 2719-3969 partner limits assumed): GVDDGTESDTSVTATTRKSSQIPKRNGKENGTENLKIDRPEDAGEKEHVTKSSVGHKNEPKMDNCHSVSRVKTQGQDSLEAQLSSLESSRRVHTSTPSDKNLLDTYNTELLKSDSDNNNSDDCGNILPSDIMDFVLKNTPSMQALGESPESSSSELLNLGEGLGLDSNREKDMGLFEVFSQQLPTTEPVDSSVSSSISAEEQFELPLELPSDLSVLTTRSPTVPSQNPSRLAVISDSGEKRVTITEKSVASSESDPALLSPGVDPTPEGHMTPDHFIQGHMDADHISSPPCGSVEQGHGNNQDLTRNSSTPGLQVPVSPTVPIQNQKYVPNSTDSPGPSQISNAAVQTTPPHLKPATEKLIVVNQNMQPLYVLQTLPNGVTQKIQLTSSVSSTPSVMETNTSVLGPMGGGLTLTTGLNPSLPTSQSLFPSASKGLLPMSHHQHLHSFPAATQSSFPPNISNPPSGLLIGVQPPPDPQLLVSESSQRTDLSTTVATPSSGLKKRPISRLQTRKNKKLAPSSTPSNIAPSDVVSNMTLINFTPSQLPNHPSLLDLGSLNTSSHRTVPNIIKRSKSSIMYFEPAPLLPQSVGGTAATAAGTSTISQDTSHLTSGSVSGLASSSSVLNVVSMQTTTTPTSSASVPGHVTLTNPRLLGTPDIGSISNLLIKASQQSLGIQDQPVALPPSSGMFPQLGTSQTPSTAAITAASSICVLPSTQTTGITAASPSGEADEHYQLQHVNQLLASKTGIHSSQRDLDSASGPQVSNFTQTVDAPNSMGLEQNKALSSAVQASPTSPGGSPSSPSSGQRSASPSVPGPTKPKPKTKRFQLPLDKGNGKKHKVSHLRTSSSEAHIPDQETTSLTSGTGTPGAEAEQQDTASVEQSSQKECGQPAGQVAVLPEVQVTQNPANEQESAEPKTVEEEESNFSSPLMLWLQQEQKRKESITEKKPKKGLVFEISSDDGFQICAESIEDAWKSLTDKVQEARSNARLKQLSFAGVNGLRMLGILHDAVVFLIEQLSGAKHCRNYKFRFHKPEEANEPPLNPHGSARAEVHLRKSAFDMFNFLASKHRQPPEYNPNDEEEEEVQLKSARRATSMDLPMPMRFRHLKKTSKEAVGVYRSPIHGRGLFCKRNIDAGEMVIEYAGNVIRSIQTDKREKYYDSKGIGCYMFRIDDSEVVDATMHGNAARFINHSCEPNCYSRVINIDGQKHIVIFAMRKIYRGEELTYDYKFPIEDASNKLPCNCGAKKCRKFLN
- assayProtocol: Inhibition of menin (unknown origin)-FITC-tagged MLL1 (unknown origin) protein-protein interaction after 1 hr by fluorescence polarization assay
IC50 under 50 µM gets T, anything at or over 50 µM gets F.

Is IC50 strictly under 50 µM for the entry "CCCCc1cc2c(N3CCN(C4=NCC(C)(C)S4)CC3)ncnc2s1" ?
T

Decide: IC50 of "CCc1cc2c(N3CCN(c4nccs4)CC3)ncnc2s1" strictly below 50 µM?
T

Criterion: IC50 strictly below 50 µM. Is it met by "CCc1cc2c(N3CCN(Cc4ccc(Cl)cc4)CC3)ncnc2s1" ?
T

Is it true that IC50 reported for "CCc1cc2c(N3CCN(c4nncs4)CC3)ncnc2s1" is less than 50 µM?
F

IC50 strictly < 50 µM for this compound? "CCc1cc2c(N3CCN(c4ccccn4)CC3)ncnc2s1"
F

Confirm or reject: IC50 of "CCc1cc2c(N3CCN(c4ncccn4)CC3)ncnc2s1" lies strictly below 50 µM
F

Is it true that IC50 reported for "CCc1cc2c(N3CCN(Cc4ccccc4)CC3)ncnc2s1" is less than 50 µM?
F
